tested on: platelets of guinea-pig; assay: Inhibition of the platelet aggregation induced by U46619 (BORN test), guinea-pig platelets; assay type: cell-based; settings: Cavia porcellus, Platelet, read-out: PLATELET AGGREGATION GUINEA-PIG IC 50
pIC50: −log10 of the molar value.
Measurement name: pIC50

• O=C(O)Cc1ccc(C[C@@H]2CCCC[C@H]2NS(=O)(=O)c2ccc(Cl)cc2)cc1 (relative stereo) = 6.41
• O=C(O)c1ccc(CC2(CNS(=O)(=O)c3ccc(Cl)cc3)CCCC2)cc1 = 5.82
• CSc1ccc(S(=O)(=O)NCC2(Cc3ccc(CC(=O)O)cc3)CCCC2)cc1 = 6.00
• O=C(O)Cc1ccc(C[C@@H]2CCC[C@H]2NS(=O)(=O)c2ccccc2)cc1 (relative stereo) = 5.20

(I) O=S(=O)(NCC1(Cc2ccc(Cc3nnn[nH]3)cc2)CCCC1)c1ccc(Cl)cc1
(II) O=C(O)Cc1ccc(CC2(CNS(=O)(=O)c3cccc(C(F)(F)F)c3)CCCC2)cc1
(III) O=C(O)CCC(=O)c1ccc(CC2(CNS(=O)(=O)c3ccc(Cl)cc3)CCCC2)cc1
(IV) O=C(O)Cc1ccccc1CC1(CNS(=O)(=O)c2ccc(Cl)cc2)CCCC1
INPUT: Let's sort these by pIC50, smallest first. Go ahead? Note for the reader: the ranking is given by listing the labels in the order requested.
OUTPUT: II, I, III, IV
(II: 5.30, I: 5.80, III: 6.04, IV: 6.43)
